Values were extracted from the supplement of paper PMC10567573.

Readings of protein stability index for the listed variants
B1: VENTX (parent)
chain: VFQHHQYLSPLERKRLAREMQLSE

# Variants of: B1
# assay_procedure: protein stability index of a GFP-peptide fusion (GPS, HEK-293T) (PSI 1-6); higher = more stable;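 further: lentivirally expressed fusions sorted by FACS into six bins by GFP to DsRed ratio, PSI derived from sequencing read proportions per bin multiplied by bin number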
# recorded_conditions: c terminus: a fixed tail appended
measured_quantity: protein stability index

> print(dat)
    variant  test.value
 1     A17G        2.69
 2     A17R        2.98
 3     L16M        2.48
 4     E12D        2.39
 5     R15H        2.54
 6     L11A           3
 7      Y7E        3.22
 8     L16F        2.28
 9      Q3A        3.03
10     Q21R        2.99
11     R15G         2.6
12      H5Q        3.01
13     L22D        3.29
14      H5D        3.47
15      Y7P        3.33
16     L11K        3.03
17      H5C        2.17
18     Q21M        2.06
19      S9T        2.21
20      H4M        2.31
21     E12P        2.99
22      Q3C        1.85
23      H5A         2.5
24     E19T        2.16
25     L11P         2.1
26     R13M        2.43
27      V1C        2.45
28     M20P        2.78
29     A17S         3.1
30      Y7T        3.49
31     L11Q        2.73
32      Y7W        2.11
33      F2V        2.55
34     E19M        1.78
35      F2D        4.44
36      V1Y        2.36
37     P10A        2.62
38     P10W        1.96
39     M20K        2.54
40      H5T        4.21
41     L22P        2.68
42     Q21V        2.44
43     E24V        1.39
44      Q6D        3.23
45     M20V        2.29
46     P10E        2.91
47     S23A         3.5
48      Q6Y        2.09
49     E12G        2.07
50      L8V        2.41
51     L22E        2.85
52      H5I        2.08
53     R18I        2.67
54     S23F        2.98
55      Y7H        2.33
56     E24S        2.65
57     P10K        2.52
58     R15L        2.02
59      H4R        2.37
60      L8Y        2.32
61     M20T        2.36
62     E12A        1.96
63     K14M        3.11
64     S23W        2.04
65     K14T        2.58
66     L16Y        2.31
67      Q6P        2.09
68      Q3V        2.78
69     K14Y        2.58
70     E24A        2.14
71     R13Q        2.94
72     R15W        2.21
73     S23C        2.41
74      Y7Q        3.27
75      H5Y        2.43
76      F2H        3.38
77     E19C        1.91
78     R18K        2.65
79      H5G        3.71
80     R18S           3
81     R15Y        2.04
82      F2L        3.22
83      Q6F        1.84
84     E24P         2.1
85     R18E         2.8
86      Q3I        2.07
87     R18P        2.13
88     L22Y        2.17
89     L22K        3.62
90     L22H        2.93
91     S23Y        2.42
